TARGET_OR_TEST_SYSTEM: FZD10 (Homo sapiens, UniProt Q9ULW2)
Construct: purchased Promega (in-house HiBiT-GPCR construct library, NanoBRET)
Sequence (Q9ULW2 21-581): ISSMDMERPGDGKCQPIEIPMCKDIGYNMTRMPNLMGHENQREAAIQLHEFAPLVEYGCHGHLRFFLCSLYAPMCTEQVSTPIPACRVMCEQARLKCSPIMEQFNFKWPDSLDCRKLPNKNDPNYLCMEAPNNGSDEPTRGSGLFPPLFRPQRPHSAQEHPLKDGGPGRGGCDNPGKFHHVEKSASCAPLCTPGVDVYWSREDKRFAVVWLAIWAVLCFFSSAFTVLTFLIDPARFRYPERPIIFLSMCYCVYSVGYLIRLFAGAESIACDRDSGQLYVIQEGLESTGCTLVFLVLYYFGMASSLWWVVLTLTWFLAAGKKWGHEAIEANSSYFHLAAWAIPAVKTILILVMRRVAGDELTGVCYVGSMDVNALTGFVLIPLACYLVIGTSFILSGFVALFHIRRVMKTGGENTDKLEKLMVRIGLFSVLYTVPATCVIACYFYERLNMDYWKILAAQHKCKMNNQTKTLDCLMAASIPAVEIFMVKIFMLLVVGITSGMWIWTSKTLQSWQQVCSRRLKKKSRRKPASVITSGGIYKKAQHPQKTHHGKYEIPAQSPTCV
MEASUREMENT_NOTES: NanoBRET screen HiBiT-FZD10 in HEK293
Type: binding
PARTICULARS: FZD10; tracer 1μM
Lab note - cut at 1 for NanoBRET Fold Response: criterion met if strictly below, criterion not met if not.

Field: below-cutoff. Rule: recorded NanoBRET Fold Response strictly less than 1. Subject: "CC(C)N(CC[C@H](c1ccccc1)c1cc(CCNC(=O)c2ccc(CNC(=O)CCc3ccc4n3[B-](F)(F)[N+]3=C(c5ccc[nH]5)C=CC3=C4)cc2)ccc1O)C(C)C"
criterion not met

Field: below-cutoff. Rule: recorded NanoBRET Fold Response strictly less than 1. Subject: Cc1nc2n(c(=O)c1CCN1CCC(c3noc4cc(F)ccc34)CC1)CCCC2OC(=O)NCCOCCOCCOCCOCCNC(=O)CCc1ccc2n1[B-](F)(F)[N+]1=C(c3ccc[nH]3)C=CC1=C2 (centres unmarked)
criterion not met

Field: below-cutoff. Rule: recorded NanoBRET Fold Response strictly less than 1. Subject: "COc1ccccc1N1CCN(CCCCN2C(=O)c3ccc(CNC(=O)CCOCCNC(=O)c4ccc(CNC(=O)CCc5ccc6n5[B-](F)(F)[N+]5=C(c7ccc[nH]7)C=CC5=C6)cc4)cc3C2=O)CC1"
criterion met

Field: below-cutoff. Rule: recorded NanoBRET Fold Response strictly less than 1. Subject: "CC(C)N(CC[C@H](c1ccccc1)c1cc(CCNC(=O)CCOCCOCCOCCOCCNC(=O)CCc2ccc3n2[B-](F)(F)[N+]2=C(c4ccc[nH]4)C=CC2=C3)ccc1O)C(C)C"
criterion not met

Field: below-cutoff. Rule: recorded NanoBRET Fold Response strictly less than 1. Subject: "COc1ccccc1N1CCN(CCCCN2C(=O)c3ccc(CNC(=O)CCOCCOCCOCCOCCNC(=O)CCc4ccc5n4[B-](F)(F)[N+]4=C(c6ccc[nH]6)C=CC4=C5)cc3C2=O)CC1"
criterion not met

Field: below-cutoff. Rule: recorded NanoBRET Fold Response strictly less than 1. Subject: "O=C(CCc1ccc2n1[B-](F)(F)[N+]1=C(c3ccc[nH]3)C=CC1=C2)NCCOCCOCCNC(=O)OCCOCCN1CCN(C2=Nc3ccccc3Sc3ccccc32)CC1"
criterion met

Field: below-cutoff. Rule: recorded NanoBRET Fold Response strictly less than 1. Subject: O=C(CCc1ccc2n1[B-](F)(F)[N+]1=C(c3ccc[nH]3)C=CC1=C2)NCc1ccc(C(=O)NCCOCCC(=O)N[C@@H]2CC[C@@]3(O)[C@H]4Cc5ccc(O)c6c5[C@@]3(CCN4CC3CC3)[C@H]2O6)cc1 [Naltrexone-3-NB590]
criterion not met
